System: EKVX NSCLC
ASSAY_INFO: NCI-60 one-dose screen, 48 h (100 = growth as untreated, 0 = no growth, -100 = all killed)
CONDITION: 10 µM unless noted
This is part of a sample that, as a whole, favours compounds with a hit. Of some 83,000 tested, about 20% had one in any assay.
Provide the recorded growth for the entries that follow.
Numeric only. Scale: %

Task item: Requested field: growth. Item: CCCCn1c(-c2cccc(OC)c2)nc2cc(OC)c(OC)cc2c1=O
Reply: 70.8

Task item: Requested field: growth. Item: ClC1c2ccccc2CCc2ccccc21
Reply: 94

Task item: Requested field: growth. Item: C#C[C@@]1(O)[C@@H](CO)O[C@@H](n2cc(C(F)(F)F)c3c(N)ncnc32)[C@@H]1O
Reply: 5.12

Task item: Requested field: growth. Item: CC(C)CNCC(O)COc1ccc(C(C)(C)c2ccc(OCC(O)CNCC(C)C)cc2)cc1 (stereo not given)
Reply: 69.4

Task item: Requested field: growth. Item: COc1cc(Nc2ncccc2C(=O)Nc2nc3ccc(F)cc3s2)cc(OC)c1OC
Reply: 22

Task item: Requested field: growth. Item: CCC1(C(N)=O)CC2C=CC1CC2 (stereo not given)
Reply: 115

Task item: Requested field: growth. Item: COc1cc(/C=C/C(=O)c2c(C)n([O-])c3cc(C)c(C)cc3[n+]2=O)cc(OC)c1OC
Reply: 79.2

Task item: Requested field: growth. Item: O=C(NCCNc1nccc(-c2c(-c3cccc(O)c3)nc3sccn23)n1)c1ccccc1O
Reply: 66.8

Task item: Requested field: growth. Item: O=C(NCCNc1nccc(-c2c(-c3cccc(O)c3)nc3sccn23)n1)c1cccc(C(F)(F)F)c1
Reply: 91.6

Task item: Requested field: growth. Item: Fc1cccc(F)c1C#Cc1ccc2cccnc2c1
Reply: 68.6
